- ASSAY PROCEDURE: protein stability index of a GFP-peptide fusion (GPS, HEK-293T) (PSI 1-6); higher = more stable;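 note: 24-mer peptide tiles fused after GFP, lentivirally expressed, FACS-sorted into six equal bins by GFP/DsRed ratio, decoded by Illumina sequencing, PSI is the read-weighted mean bin number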
- RUN CONDITIONS: treatment: MLN4924 1 uM, 8 h; c terminus: a fixed tail appended
Catalogue of protein stability index readings, one per entry.
Answer with a bare number; do not write a unit.

Use these answered entries as a reference point.
# SEQUENCE STRING, protein stability index
data = [
    ("FRAGMKKEAVQNERDRISTRRSSY [HNF4A]", 4.17),
    ("YNSSRFGEGVERELFVREPTGRLP [MYORG]", 3.73),
    ("TIMQAVSQIRLNREHKETCEMDWS [TEKT4]", 2.44),
]

Any idea what its protein stability index is? The sequence is MAAEIQPKPLTRKPILLQRMEGSQ [WDFY2]
3.8

Form field: reported protein stability index of RTIYHMFIALLILFILSTLVVDYI [SOAT1]
2.17

Name the reported protein stability index value associated with the sequence LVWLVRELVKSGVLGADGVCMTFM [INTS3]
2.22

Give its protein stability index value. Item: KIEIQTLTGLFKGDKCHSLVGKPK [CASP6]
3.15

Would you kindly share the measured protein stability index for YETVAAATSESTTVEPGKLDVGAT [DRICH1] ?
5.43

* * *

- ASSAY PROCEDURE: protein stability index of a GFP-peptide fusion (GPS, HEK-293T) (PSI 1-6); higher = more stable
- RUN CONDITIONS: treatment: MLN4924 1 uM, 8 h; c terminus: a fixed tail appended
Entries and their protein stability index values follow.
Keep it simple and answer with nothing but the number.

Take a look at these entries with their results.
# SEQUENCE STRING, READOUT VALUE
measured = [
    ("FHHIPSTCQRVNGIKVQNGGIVTD [SLC19A2]", 3),
    ("DFALINKLDIQCDLKTLSDDIKES [ATE1]", 4.18),
    ("QSFGVASASSIKQILLEWCRSKTL [SMTNL2]", 2.15),
]

Consider the sequence EPGGPGWLPESDCETVTCCLFSER [SMAD6] and give its measured protein stability index.
4.16

// protein stability index lookup, key: NQLQYMQNVVVKTLWKHQFAWPFY [BRD3]
2.64

* * *

- ASSAY PROCEDURE: protein stability index of a GFP-peptide fusion (GPS, HEK-293T) (PSI 1-6); higher = more stable
- RUN CONDITIONS: treatment: MLN4924 1 uM, 8 h; c terminus: a fixed tail appended
We use 4 as the dividing line for protein stability index: on or above the line is TRUE, below is FALSE.

Recorded results for 5 sequences are shown here.
# SEQUENCE STRING, QUALITATIVE LABEL
rows = [
    ("HKLQEEKAFREEMKIFREKIEDFR [CCDC70]", "FALSE"),
    ("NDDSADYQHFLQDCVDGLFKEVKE [DLC1]", "FALSE"),
    ("TVLTRHSQPATPTPLQSRTSIVQA [PDLIM7]", "FALSE"),
    ("FPNRTDQQCQYRWLRVLNPDLVKG [MYBL2]", "FALSE"),
    ("RELGIRQRDEQLRALQERLGQQQR [FBF1]", "TRUE"),
]

Textbook exercise: given the entry GLQDTITAELVVIEDAAEPKEPAP [PALM] , state whether its protein stability index is greater than or equal to 4.
TRUE

Does the sequence ATSGPPGIQPGQEPPVTMIFMGYQ [PALM] have recorded protein stability index that is 4 or more?
FALSE
